system: IL-1-induced aggrecan degradation; experiment: Aggrecan degradation in IL-1-stimulated chondrocytes, 2-B-6 antibody immunoblot; format: cell-based, bovine; details: 50 μM; repeat experiment
measuredEndpoint: inhibition of IL-1-induced aggrecan degradation, 2-B-6

• N#C/C(=C\c1ccc(O)c(O)c1)C(=O)NCCCCc1ccccc1 [Tyrphostin AG 556] = 100%

----------
tested on: stromelysin mRNA; test: Northern blot of IL-1-induced stromelysin mRNA in primary bovine chondrocytes; assay type: cell-based; settings: 50 μM; 2 h preincubation, IL-1α 1 ng/ml 24 hours
measuredEndpoint: inhibition of IL-1-induced upregulation of stromelysin mRNA levels

- N#CC(C#N)=Cc1cc(O)c(O)c(O)c1 [Tyrphostin AG 82]: no effect
- N#C/C(=C\c1ccc(O)c(O)c1)C(=O)NCCCCc1ccccc1 [Tyrphostin AG 556]: Total inhibition
- N#CC(C#N)=Cc1ccc([N+](=O)[O-])c(O)c1 [Tyrphostin AG 126]: no effect
- O=c1c(-c2ccc(O)cc2)coc2cc(O)cc(O)c12 [Genistein]: Total inhibition
